# test.target: hGLUT1 (Homo sapiens)
# Sequence (P11166 whole entry): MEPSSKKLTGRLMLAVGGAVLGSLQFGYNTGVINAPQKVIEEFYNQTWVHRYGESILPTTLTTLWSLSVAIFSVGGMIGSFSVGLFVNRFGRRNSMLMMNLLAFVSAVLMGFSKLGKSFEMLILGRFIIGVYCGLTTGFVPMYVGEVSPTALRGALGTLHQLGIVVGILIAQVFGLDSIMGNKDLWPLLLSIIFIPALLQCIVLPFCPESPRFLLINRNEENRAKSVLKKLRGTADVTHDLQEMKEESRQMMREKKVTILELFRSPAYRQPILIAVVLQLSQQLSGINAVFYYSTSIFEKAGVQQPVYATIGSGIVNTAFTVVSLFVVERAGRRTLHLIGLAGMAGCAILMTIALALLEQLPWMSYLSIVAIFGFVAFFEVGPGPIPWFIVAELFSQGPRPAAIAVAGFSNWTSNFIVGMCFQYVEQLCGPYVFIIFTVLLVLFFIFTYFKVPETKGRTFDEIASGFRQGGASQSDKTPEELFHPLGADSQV
# test.method.notes: [3H]-2-deoxy-D-glucose uptake inhibition assay in CHO-hGLUT1 cells
measure: IC50 (µM)
Give the number; µM is assumed, so skip it.

stdin: Look up and report measured IC50 for this entry: `O=C(CCc1ccc(O)cc1)c1c(O)cc(O)cc1O[C@@H]1O[C@H](CO)[C@@H](O)[C@H](O)[C@H]1O`
stdout: 23
